// AUC at 24 h lookup, one value per entry
# experimental details: AUC in human at 50 mg, po QD after 24 hrs
# Type: ADME, organism-based
# Design: dose 50 mg, time < 24 hr, route oral
# measurement parameters: in vivo
assay readout: AUC at 24 h (µM·h)

compound | units | test result
CC(O)(CS(=O)(=O)c1ccc(F)cc1)C(=O)Nc1ccc(C#N)c(C(F)(F)F)c1 (configuration not stated) [BICALUTAMIDE] | µM·h | 502
CC(/C=C1\SC(=S)N(CC(=O)O)C1=O)=C\c1ccccc1 | µM·h | 20

---

# experimental details: AUC in human at 5 to 80 mg, po QD after 24 hrs
# Type: ADME, organism-based
# measurement parameters: in vivo
assay readout: AUC at 24 h (µM·h)

compound string | test result
CCC(C)(C)C(=O)O[C@H]1C[C@@H](C)C=C2C=C[C@H](C)[C@H](CC[C@@H]3C[C@@H](O)CC(=O)O3)[C@H]21 | 0.212
